Recorded viability at 28.5 h, 10 µM values for a group of compounds are listed next.
Assay: in vitro
Conditions: human, hela cells, % viability
Write the answer as a number in %, unit excluded.

Example entries and their recorded answers appear below.
Smiles Entry	viability at 28.5 h, 10 µM, %
CN(C)C(=O)c1nccnc1-c1ccc(COc2ccc3c(c2)OCO3)cc1	91.1
CN1CCN(C(=O)c2[nH]c3ccccc3c2NS(=O)(=O)Cc2ccccc2[N+](=O)[O-])CC1	92.6

Let us examine a further case.
Which viability at 28.5 h, 10 µM value belongs to COc1cccc(C(=O)N2CCN(C(=O)Nc3ccsc3)CC2)c1 ?
91.5

====

Test: in vitro
Settings: human, hela cells, % viability
Metric Name: viability at 28.5 h, 10 µM (%)
Write the answer as a number in %, unit excluded.

Example entries and their recorded answers appear below.
Molecule	Value Units	viability at 28.5 h, 10 µM
O=C(Nc1ccc(Cl)cc1)NC(C(=O)O)c1ccccc1 (stereo not shown)	%	94.9
COc1ccc(CN2C(=S)N(CC3CCCCC3)[C@H]3[C@@H]2[C@H]2OC(=O)[C@@H]3C[C@H]2O)cc1	%	117
Cc1ccc2nsnc2c1NC(=O)COc1ccc([N+](=O)[O-])cc1	%	95.6
CC(=O)c1ccc(-c2ccc(C(=O)NCCc3ccc(S(N)(=O)=O)cc3)c(N(C)C(C)=O)n2)s1	%	91.9
COc1ccccc1CNCc1ccccn1	%	89.4
COc1ccc(C(=O)N2CC[C@H]3NC(=O)N(c4ccccc4)C(=O)[C@H]32)cc1	%	93.1

Let us examine a further case.
Which viability at 28.5 h, 10 µM value belongs to Cc1ccccc1COc1cccc(Cl)c1Cl ?
90.6

====

Recorded viability at 28.5 h, 10 µM values for a group of compounds are listed next.
Experiment: in vitro
Conditions: human, hela cells, % viability
Write the answer as a number in %, unit excluded.

Example entries and their recorded answers appear below.
Compound	viability at 28.5 h, 10 µM (%)
O=C(O)C(Cc1ccccc1)Nc1ncnc2sc3c(c12)CCC3 (centres unmarked)	90.2
N=c1n(Cc2ccccc2)c2ccccc2n1CC(O)COc1ccc(Cl)cc1 (centres unmarked) [CBK262469C]	94.4
COc1cc(C(=O)N2CCC(N(C)C)C2)ccc1Nc1cncc(-c2cc3ccccc3[nH]2)n1 (centres unmarked)	90.6
O=C(Nc1cccc2ccccc12)C1CCCN1S(=O)(=O)c1ccc(Cl)cc1 (centres unmarked)	92.9
O=C(CCS(=O)(=O)c1cc(Cl)ccc1Cl)OCC(=O)c1ccccc1	90.1
Cc1csc(C(Cc2ccsc2)NC(=O)c2ccc(=O)[nH]c2)n1 (centres unmarked)	95.2
COc1cccc(Oc2nccnc2/C=C/c2ccccc2)c1	107
Cc1ccc2[nH]cc(CCN3CCC4(CC3)NCCc3c4[nH]c4ccc(OCc5ccccc5)cc34)c2c1	91.8
CC(C)Cn1c(=O)[nH]c2ncc(-c3ccc(O)cc3)nc21	105
CC(C)(C)c1n[nH]c(C2CN(C(=O)CCCn3cccn3)CCO2)n1 (centres unmarked)	88.1

Which viability at 28.5 h, 10 µM value belongs to CCN(Cc1ccccc1)C(=O)NCc1cnc(C)cn1 ?
107

Which viability at 28.5 h, 10 µM value belongs to COC(=O)c1ccc(-c2ccc(OC)c(OC)c2)nc1 [CBK160175T] ?
98.7

Which viability at 28.5 h, 10 µM value belongs to CCN(CC)CC(O)Cn1c(-c2cccc([N+](=O)[O-])c2)nc(=S)c2c1CCCC2 (centres unmarked) ?
97.1

Which viability at 28.5 h, 10 µM value belongs to O=C(O)CSc1nnc2ccc(C(F)(F)F)cn12 ?
81.3

Which viability at 28.5 h, 10 µM value belongs to NS(=O)(=O)c1cc(C(=O)O)ccc1F ?
81.1

Which viability at 28.5 h, 10 µM value belongs to Cc1cc(S(=O)(=O)N2CCCCC2)ccc1OCC(=O)O ?
80

Which viability at 28.5 h, 10 µM value belongs to COc1cc(OC)nc(C(NC(=O)C2CCN(CCN3C(=O)c4ccccc4C3=O)CC2)c2ccc(F)cc2)n1 (centres unmarked) ?
103

Which viability at 28.5 h, 10 µM value belongs to O=C(Nc1nc2ccc(Cl)cc2s1)c1nc(SCc2ccccc2)ncc1Cl ?
98.2

Which viability at 28.5 h, 10 µM value belongs to O=C(Nc1cccc(S(=O)(=O)N2CCCC2)c1)c1nc[nH]n1 ?
103

Which viability at 28.5 h, 10 µM value belongs to CC(=O)N1CC(C(=O)Nc2ccccc2Cc2ccccc2)Oc2ccccc21 (centres unmarked) ?
88.6

====

Test: in vitro
Conditions: human, hela cells, % viability
Metric Name: viability at 28.5 h, 10 µM (%)
Write the answer as a number in %, unit excluded.

Compound	Measured Result
O=c1c2cc(F)ccc2nc2n1CCN(Cc1ccccc1)CC2	94.5

Which viability at 28.5 h, 10 µM value belongs to CC1=C(C)CC(C(=O)Nc2ccc(C(=O)NCc3cccnc3)cc2)C(C(=O)O)C1 (centres unmarked) ?
78.8

Which viability at 28.5 h, 10 µM value belongs to c1cncc(-c2nccnc2NCc2ccco2)c1 ?
102

Which viability at 28.5 h, 10 µM value belongs to Cn1nccc1CN1CCNC(=O)C1c1ccccc1C(F)(F)F (centres unmarked) ?
86.9

Which viability at 28.5 h, 10 µM value belongs to COc1ccccc1CC(=O)Nc1ccc(OCC(=O)O)cc1 ?
99.1

Which viability at 28.5 h, 10 µM value belongs to CC(=O)N1CCC2(CC1)NC(=O)N(c1ccc(C(=O)O)cc1)N2 ?
103

Which viability at 28.5 h, 10 µM value belongs to COC(=O)[C@@H](C)NC(=O)[C@H]1CN(C(=O)Nc2ccccc2)CCN1C(=O)c1cccs1 ?
97.2

Which viability at 28.5 h, 10 µM value belongs to Oc1cc(-c2ccccc2)nc(NNc2ccccc2)n1 ?
96.6

Which viability at 28.5 h, 10 µM value belongs to O=C1NC(=O)C(CCCCN2CCCC3(CCN(C(=O)c4cc(F)c(F)cc4F)C3)C2)N1 (centres unmarked) ?
97.5

Which viability at 28.5 h, 10 µM value belongs to FC(F)(F)c1cccc(OC2CCCNC2)n1 (centres unmarked) ?
93.2

Which viability at 28.5 h, 10 µM value belongs to Cc1cc(C)nc(Nc2n[nH]c(-c3cccc4ccccc34)n2)n1 ?
99.3

====

Assay: in vitro
Details: human, hela cells, % viability
Lab note: compare viability at 28.5 h, 10 µM with 90%, writing Satisfied if less and Not satisfied if equal or more.

Compound	Classification
CCn1cnc(S(=O)(=O)N2CCC(OCc3ccccc3)CC2)c1	Satisfied
OCc1ccccc1-c1cncc(NCCc2c[nH]c3ccccc23)n1	Not satisfied
O=C(O)c1ccc(NC(S)=NC(NC(=O)c2ccco2)C(Cl)(Cl)Cl)cc1 (stereo not shown)	Not satisfied
CCOc1ncccc1NC(=O)N(CC1CCOC1)C1CC1 (stereo not shown)	Not satisfied

Then this compound:
# strict comparison: is reported viability at 28.5 h, 10 µM < 90%? input = O=C1CN(C(=O)Nc2ccc3c(c2)OCCO3)CCN1
Not satisfied

====

Assay: in vitro
Settings: human, hela cells, % viability
Lab note: compare viability at 28.5 h, 10 µM with 90%, writing Yes if less and No if equal or more.

# strict comparison: is reported viability at 28.5 h, 10 µM < 90%? input = COCCNc1nc(-c2ccoc2)cn2ccnc12 [CBK066416]
No

# strict comparison: is reported viability at 28.5 h, 10 µM < 90%? input = Cc1ccc2nc(C(=O)NCCSc3nccn3C)cn2c1 [CBK281397]
No

# strict comparison: is reported viability at 28.5 h, 10 µM < 90%? input = COc1cc(-c2nccnc2N2CCCN(C)CC2)cc(OC)c1OC [CBK037994]
No

# strict comparison: is reported viability at 28.5 h, 10 µM < 90%? input = O=C(Nc1nonc1-c1nc2ccccc2n1CCOC(=O)c1ccc(F)cc1)c1ccc(F)cc1 [CBK062653]
No

# strict comparison: is reported viability at 28.5 h, 10 µM < 90%? input = O=C(Cn1cnc2ccccc21)N1CCc2[nH]c3ccccc3c2C1 [CBK281860]
Yes

====

Recorded viability at 28.5 h, 10 µM values for a group of compounds are listed next.
Assay: in vitro
Details: human, hela cells, % viability
Write the answer as a number in %, unit excluded.

Example entries and their recorded answers appear below.
Compound	viability at 28.5 h, 10 µM, %
O=C(NCC1(c2ccccc2Cl)CC1)c1ccc(=O)n(CC(=O)N2CCCCC2)c1	84.8
Cc1nc(C)c(C(=O)NC2Cc3ccccc3C2)s1	91.2
COc1ncccc1-c1csc(N2CCOC(C)C2)n1 (centres unmarked)	81.8
NC(=O)CN1C(=O)CO[C@H]2CN(Cc3ccccc3F)C[C@H]21	114
Cn1c(O)c(CCNc2cc(C3CCOC3)ncn2)cnc1=O (centres unmarked)	90.7
NS(=O)(=O)c1ccc(Nc2nc3nonc3nc2Nc2ccc(S(N)(=O)=O)cc2)cc1	97.5

Let us examine a further case.
Which viability at 28.5 h, 10 µM value belongs to Cc1ccc(Cn2nnc3c(O)nc(C4CCN(C(=O)CC(C)(C)C)CC4)nc32)cc1 ?
91.2
